- Tested on: Salmonella typhimurium Ames mutagenicity, literature compiled
- protocol_summary: DSSTox (CPDBAS) Carcinogenic Potency Database Salmonella Mutagenicity
Calls of active or inactive are those of the source.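 Rule for the calls: active = chemicals rated mutagenic or weakly mutagenic in the Salmonella bacterial test by one literature review, or positive overall by another; inconclusive = no clear call, values can overlap the other calls; inactive = the rest.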
Outcomes: active, inactive

compound | group
Nc1ccc(O)c([N+](=O)[O-])c1 | active
CC(Cl)(Cl)Cl | active
Cc1ccc(OP(=O)(Oc2ccc(C)cc2)Oc2ccc(C)cc2)cc1 | inactive
O=S1(=O)CCCO1 | active
OCCOCCOCCO | active
Nc1ccc(Cl)c(N)c1 | active
COP(=O)(OC)OC=C(Cl)Cl | active
C/C=C/c1ccc2c(c1)OCO2 | inactive
O=NN1CCNCC1 | active
O=P(OCCCl)(OCCCl)OCCCl | inactive
O=C(N[C@H](CO)[C@H](O)c1ccc([N+](=O)[O-])cc1)C(Cl)Cl | inactive
Oc1c(Cl)cc(Cl)c(Cl)c1Cc1c(O)c(Cl)cc(Cl)c1Cl | inactive
CCOC(N)=O | active
CC(I)C1OCC(CO)O1 (stereo not given) | active
O=C1NC(c2ccc([N+](=O)[O-])s2)Nc2ccccc21 (stereo not given) | active
